Reference source: the supplement of paper PMC11208160

# assay name: recombinant barcode read abundance after kanamycin selection (control-corrected) (log10(CPM+1)); higher = more efficient recombination; sequences stand for … in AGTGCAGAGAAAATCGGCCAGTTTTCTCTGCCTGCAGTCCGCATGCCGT…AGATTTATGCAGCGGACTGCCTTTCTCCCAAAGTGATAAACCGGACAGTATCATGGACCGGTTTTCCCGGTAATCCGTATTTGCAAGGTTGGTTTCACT; site = the 11-nt target
Decide using recombinant barcode read abundance (log10): a value greater than or equal to 1 is 1, a smaller one is 0.

Completed entries (count: 3):
1. CGAGAGTCTTGGGTTCTAACCTGTTGCGG (site CGAGAGTCTCC): 1
2. TGACTCTCTTGGGTTCTAACCTGTTGCCT (site TCACTCTCTAG): 0
3. TAACGTACTTGGGTTCTAACCTGTTGCGG (site TAACGTACTCC): 1

-- ask Could you tell me if the measured recombinant barcode read abundance (log10) of TCCGAGACTTGGGTTCTAACCTGTTGCCC (site TCCGAGACTCG) reaches 1 or more?
-- reply 0

-- ask Textbook exercise: given the entry TAGAACACTTGGGTTCTAACCTGTTGCTC (site TAGAACACTCA) , state whether its recombinant barcode read abundance (log10) is greater than or equal to 1.
-- reply 0

---

# assay name: recombinant barcode read abundance after kanamycin selection (control-corrected) (log10(CPM+1)); higher = more efficient recombination; sequences stand for … in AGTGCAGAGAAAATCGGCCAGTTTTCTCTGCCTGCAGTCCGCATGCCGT…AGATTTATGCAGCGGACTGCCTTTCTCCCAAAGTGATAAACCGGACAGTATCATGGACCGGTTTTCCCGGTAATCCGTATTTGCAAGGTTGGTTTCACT; site = the 11-nt target
observed property: recombinant barcode read abundance (log10)

In the examples that follow, each entry is paired with its recorded recombinant barcode read abundance (log10).
1. TCGGAGTCTTGGGTTCTAACCTGTTGCAT (site TCGGAGTCTAG): 1.4
2. AGTTAATCTTGGGTTCTAACCTGTTGCTT (site AGCTACTCTAA): 0.0347
3. GGGAACCCTTGGGTTCTAACCTGTTGCTA (site GGGAACCCTGA): 0.0297

-- ask I'd like to know its recombinant barcode read abundance (log10). The sequence in question is GGTAATACTTGGGTTCTAACCTGTTGCAT (site GGTAATACTAT)
-- reply 0.957

-- ask Looking for the measured recombinant barcode read abundance (log10) of GTAACGACTTGGGTTCTAACCTGTTGCCA (site GTAACGACTTG) , can you help?
-- reply 1.08

-- ask // lookup recombinant barcode read abundance (log10) for TATAATGCTTGGGTTCTAACCTGTTGCGT (site TATAATGCTAC)
-- reply 0.335

-- ask Query (sequence): CACCTGACTTGGGTTCTAACCTGTTGCCG (site CACCTGTCTCG) ; field requested: recombinant barcode read abundance (log10)
-- reply 0.0187

-- ask Requested field: recombinant barcode read abundance (log10). Item: CAAACTACTTGGGTTCTAACCTGTTGCCA (site TTGCGGCCTCT)
-- reply 0.078

-- ask Looking for the measured recombinant barcode read abundance (log10) of GAGAAGCCTTGGGTTCTAACCTGTTGCCT (site CAGAAGCCTAG) , can you help?
-- reply 0.409

-- ask Look up recombinant barcode read abundance (log10): GTCAGGGCTTGGGTTCTAACCTGTTGCCT (site GTCAGGGCTAG)
-- reply 0.275

---

# assay name: recombinant barcode read abundance after kanamycin selection (control-corrected) (log10(CPM+1)); higher = more efficient recombination; sequences stand for … in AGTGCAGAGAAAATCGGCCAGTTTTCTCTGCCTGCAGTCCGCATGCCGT…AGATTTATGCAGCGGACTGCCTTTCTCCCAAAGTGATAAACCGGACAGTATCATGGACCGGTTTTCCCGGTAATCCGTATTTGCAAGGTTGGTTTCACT; site = the 11-nt target
Consider the following sequences and their measured recombinant barcode read abundance (log10) readings.
Form: value (number only, do not type unit).

Below are worked cases with known answers.
1. GGGGCGGCTTGGGTTCTAACCTGTTGCCT (site GGGGCGACTAG): 0.489
2. AGGGATCCTTGGGTTCTAACCTGTTGCGT (site AGGGATCCTAC): 3.09
3. CATCCCTCTTGGGTTCTAACCTGTTGCTT (site CATCCCTCTAA): 1.51
4. ATCCACCCTTGGGTTCTAACCTGTTGCCT (site ATCCACCCTAG): 2.07
5. GTTTGGTCTTGGGTTCTAACCTGTTGCCT (site GTTTGATCTAG): 0.285
6. ACGCCTCCTTGGGTTCTAACCTGTTGCTG (site ACGTCTCCTCA): 0.175
7. GCTAAGACTTGGGTTCTAACCTGTTGCTG (site GGTAAGACTCC): 0.0258
8. TGTCAACCTTGGGTTCTAACCTGTTGCCT (site TGTCAACCTAG): 0.998
9. GTGGGCGCTTGGGTTCTAACCTGTTGCCT (site GTGGGCGCTAG): 1.33

Field: next sequence
-- ask What value of recombinant barcode read abundance (log10) has been reported for the following sequence? AGTACTACTTGGGTTCTAACCTGTTGCCT (site AATACTACTAG)
-- reply 0.0591

---

# assay name: recombinant barcode read abundance after kanamycin selection (control-corrected) (log10(CPM+1)); higher = more efficient recombination; sequences stand for … in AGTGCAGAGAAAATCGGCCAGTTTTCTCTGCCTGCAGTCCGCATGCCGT…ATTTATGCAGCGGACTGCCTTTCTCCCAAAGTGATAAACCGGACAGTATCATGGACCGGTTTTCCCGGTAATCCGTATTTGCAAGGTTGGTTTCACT; site = the 11-nt target
Listed here are sequences together with their documented recombinant barcode read abundance (log10).
Lab note: jot down the number only; don't add units.

Example sequences with recorded recombinant barcode read abundance (log10):
1) GCGGGACCCTGGGTTCTAACCTGTTGCCTGG [GCGGGACCTAG_LTGcore_CC_RTGcore_CC] (site GCGGGACCTAG) (LTG core: CC, RTG core: CC): 1.52
2) GGGAGCCCTTGGGTTCTAACCTGTTGCTGTT [GGGAGCCCTCA_LTGcore_CT_RTGcore_AA] (site GGGAGCCCTCA) (LTG core: CT, RTG core: AA): 0.272
3) AAACACACTTGGGTTCTAACCTGTTGCCTGC [AAACACACTAG_LTGcore_CT_RTGcore_GC] (site AAACACACTAG) (LTG core: CT, RTG core: GC): 0.456
4) AAACAGTCTTGGGTTCTAACCTGTTGCCTCT [AAACAGTCTAG_LTGcore_CT_RTGcore_AG] (site AAACAGTCTAG) (LTG core: CT, RTG core: AG): 1.72

-- ask What does the record list as recombinant barcode read abundance (log10) for AGGCCTCTTTGGGTTCTAACCTGTTGCCTAG [AGGCCTCCTAG_LTGcore_TT_RTGcore_CT] (site AGGCCTCCTAG) (LTG core: TT, RTG core: CT) ?
-- reply 0.103

-- ask // returns reported recombinant barcode read abundance (log10) for input AGTCTTAGATGGGTTCTAACCTGTTGCCAAG [AGTCTTACTTG_LTGcore_GA_RTGcore_CT] (site AGTCTTACTTG) (LTG core: GA, RTG core: CT)
-- reply 0.23

-- ask What value of recombinant barcode read abundance (log10) has been reported for the following sequence? CATATTATGTGGGTTCTAACCTGTTGCCTCA [CATATTACTAG_LTGcore_TG_RTGcore_TG] (site CATATTACTAG) (LTG core: TG, RTG core: TG)
-- reply 0.0228

-- ask Which recombinant barcode read abundance (log10) value belongs to AGGAGGTTCTGGGTTCTAACCTGTTGCCTGA [AGGAGGTCTAG_LTGcore_TC_RTGcore_TC] (site AGGAGGTCTAG) (LTG core: TC, RTG core: TC) ?
-- reply 0.0288

-- ask I have this sequence here, CGAGCCCCTTGGGTTCTAACCTGTTGCTGCG [CGAGCCCCTCA_LTGcore_CT_RTGcore_CG] (site CGAGCCCCTCA) (LTG core: CT, RTG core: CG) , and I need its recorded recombinant barcode read abundance (log10).
-- reply 0.339

-- ask What recombinant barcode read abundance (log10) value was documented for this sequence, AAACACACTTGGGTTCTAACCTGTTGCCTAA [AAACACACTAG_LTGcore_CT_RTGcore_TT] (site AAACACACTAG) (LTG core: CT, RTG core: TT) ?
-- reply 1.12

-- ask Please look up its recombinant barcode read abundance (log10): TGTATTCGATGGGTTCTAACCTGTTGCCTTC [TGTATTCCTAG_LTGcore_GA_RTGcore_GA] (site TGTATTCCTAG) (LTG core: GA, RTG core: GA)
-- reply 0.138

-- ask // recombinant barcode read abundance (log10) lookup, key: CGAGCCCTTTGGGTTCTAACCTGTTGCTGAA [CGAGCCCCTCA_LTGcore_TT_RTGcore_TT] (site CGAGCCCCTCA) (LTG core: TT, RTG core: TT)
-- reply 0.0246

-- ask Need recombinant barcode read abundance (log10), item GAGGCCTTATGGGTTCTAACCTGTTGCCAAG [GAGGCCTCTTG_LTGcore_TA_RTGcore_CT] (site GAGGCCTCTTG) (LTG core: TA, RTG core: CT)
-- reply 0.145

-- ask Looking for the measured recombinant barcode read abundance (log10) of AGGCGGGCTTGGGTTCTAACCTGTTGCGGAA [AGGCGGGCTCC_LTGcore_CT_RTGcore_TT] (site AGGCGGGCTCC) (LTG core: CT, RTG core: TT) , can you help?
-- reply 0.532

-- ask Record request: recombinant barcode read abundance (log10) value, item CATATTACTTGGGTTCTAACCTGTTGCCTAT [CATATTACTAG_LTGcore_CT_RTGcore_AT] (site CATATTACTAG) (LTG core: CT, RTG core: AT)
-- reply 0.0875

-- ask Would you kindly share the measured recombinant barcode read abundance (log10) for ACGGGACGGTGGGTTCTAACCTGTTGCAGCC [ACGGGACCTCT_LTGcore_GG_RTGcore_GG] (site ACGGGACCTCT) (LTG core: GG, RTG core: GG) ?
-- reply 0.12

-- ask Name the reported recombinant barcode read abundance (log10) value associated with the sequence AAACAGTCTTGGGTTCTAACCTGTTGCCTTC [AAACAGTCTAG_LTGcore_CT_RTGcore_GA] (site AAACAGTCTAG) (LTG core: CT, RTG core: GA)
-- reply 1.45

-- ask Data request, read-out recombinant barcode read abundance (log10), for GAGTCCACTTGGGTTCTAACCTGTTGCGTTA [GAGTCCACTAC_LTGcore_CT_RTGcore_TA] (site GAGTCCACTAC) (LTG core: CT, RTG core: TA)
-- reply 0.102

-- ask Please look up its recombinant barcode read abundance (log10): GGCTCCCCCTGGGTTCTAACCTGTTGCGGGG [GGCTCCCCTCC_LTGcore_CC_RTGcore_CC] (site GGCTCCCCTCC) (LTG core: CC, RTG core: CC)
-- reply 0.0622

-- ask State the recorded recombinant barcode read abundance (log10) for this entry: TGATACCGCTGGGTTCTAACCTGTTGCGTGC [TGATACCCTAC_LTGcore_GC_RTGcore_GC] (site TGATACCCTAC) (LTG core: GC, RTG core: GC)
-- reply 0.107

-- ask Name the recorded recombinant barcode read abundance (log10) for CGAGCCCCATGGGTTCTAACCTGTTGCTGAG [CGAGCCCCTCA_LTGcore_CA_RTGcore_CT] (site CGAGCCCCTCA) (LTG core: CA, RTG core: CT) .
-- reply 1.27

-- ask Fill in the blank: the reported recombinant barcode read abundance (log10) of ATGCTTTAATGGGTTCTAACCTGTTGCCTTT [ATGCTTTCTAG_LTGcore_AA_RTGcore_AA] (site ATGCTTTCTAG) (LTG core: AA, RTG core: AA) is ____.
-- reply 0.125
